Test description: Metabolic stability in mouse hepatic microsomes (Scripps Florida DMPK Core)
Format: in vitro ADME
Condition: mouse, liver microsomes; 1 mg/mL hepatic microsomes
Can you tell me half-life for the items I'm about to list?
One number for each entry, in min.

>>> result_number("O=C(Nc1ccccc1)N1CCN(C(=O)c2cccc(OCCC3CCOCC3)c2)CC1")
11.2

Please look at the items below and tell me half-life for each one, in order.
1. O=C(Nc1ccccc1)N1CCN([S+]([O-])c2cccc(OCCc3ccccc3)c2)CC1 (stereo not shown)
2. O=C(Nc1ccccc1)N1CCN(C2(c3cccc(OCCc4ccccc4)c3)COC2)CC1
3. Nc1cccc(NC(=O)N2CCN(C(=O)c3cccc(OCCC4CCCCC4)c3)CC2)c1

Response:
1. 9.6
2. 1.7
3. 16.7
